remaining target (mRNA or protein) (fraction of control) values for the sequences below.
biological target: VCAM1; conditions: ASO; further: test concentration or dose not given here
These antisense oligonucleotides have a phosphorothioate backbone; sugars and methylation of C are not fully specified.

- macromolecule-sequence: "CATCTCGATTTCTGG"
  measurement: 0.47

Problem: Please supply the value of reported remaining target (mRNA or protein) (fraction of control) for the item CTTGAACAATTAATTCCACCT
Result: 0.37

Problem: State, in one line, measured remaining target (mRNA or protein) (fraction of control) of TTACCATTGACATAAAGTGTT
Result: 0.52

Problem: Identify remaining target (mRNA or protein) (fraction of control) associated with the sequence CCCGGCATCTTTACAAAACC
Result: 0.45

Problem: Complete the entry with remaining target (mRNA or protein) (fraction of control) for CCTGAAGCCAGTGAGG
Result: 0.61

Problem: Identify measured remaining target (mRNA or protein) (fraction of control) associated with CGACCATCTTCCCAGGCATTT
Result: 0.2

Problem: Please supply the value of reported remaining target (mRNA or protein) (fraction of control) for the item CTCTCATCTTGATGGC
Result: 0.55

Problem: Please indicate remaining target (mRNA or protein) (fraction of control) recorded for AACCCTTATTTGTGTCCCACC
Result: 0.09

Problem: Please report remaining target (mRNA or protein) (fraction of control) for the following sequence: CAGATCAGGGAACTCCTC
Result: 0.55

Problem: Report remaining target (mRNA or protein) (fraction of control) for ACGACCATCTTCCC
Result: 0.51

Problem: Output measured remaining target (mRNA or protein) (fraction of control) for this item: CCACCACTCATCTCG
Result: 0.26

Problem: Return reported remaining target (mRNA or protein) (fraction of control). Input sequence: CGAGGCCACCACTC
Result: 0.16

Problem: Return reported remaining target (mRNA or protein) (fraction of control). Input sequence: AACCCAGTGCTCCCTTTGCT
Result: 0.21

Problem: State its remaining target (mRNA or protein) (fraction of control): CCCATTCACGAGGCCACC
Result: 0.11

Problem: Note remaining target (mRNA or protein) (fraction of control) for the sequence shown: GGCCACATTGGGAAAGTTGC
Result: 0.29

Problem: Determine from records and report remaining target (mRNA or protein) (fraction of control) for AACTCCTCCAGTTCTCTCATC
Result: 0.12

Problem: Output remaining target (mRNA or protein) (fraction of control) of GGTTCCAAAACCCTT
Result: 0.42

###

conditions: ASO
These antisense oligonucleotides have a phosphorothioate backbone; sugars and methylation of C are not fully specified.
property-label: remaining target (mRNA or protein) (fraction of control)
// return just the number, without any unit appended

Reference set, count: 3
- macromolecule-sequence: "GCAGAGCCGGCTGAAGTG"
  measurement: 0.96
- macromolecule-sequence: "CCGCTCTTGGGTCTGGCA"
  measurement: 0.29
- macromolecule-sequence: "CTACAGGTTGGCCACTCTGG"
  measurement: 0.33

Problem: Give a short answer stating reported remaining target (mRNA or protein) (fraction of control) for AGGTAGTACACGGCTGAA .
Result: 0.28

Problem: Find the measured remaining target (mRNA or protein) (fraction of control) of CACCCTGGCATCCCAAAT and report it.
Result: 0.13

Problem: Tell me its remaining target (mRNA or protein) (fraction of control) given CCCCTCCACAAAAGTGCC as the entry.
Result: 0.78
